Where these numbers come from: patent US12371454B2

# TARGET_OR_SYSTEM: Kras and SOS1 (biotin-tagged human Kras loaded with GDP, His-tagged human SOS1) (Homo sapiens, UniProt P01116, G12D)
# Construct: made in house; host or cells: E. coli (stated for Kras only)
# Sequence (P01116 1-188 isoform P01116-2 G12D): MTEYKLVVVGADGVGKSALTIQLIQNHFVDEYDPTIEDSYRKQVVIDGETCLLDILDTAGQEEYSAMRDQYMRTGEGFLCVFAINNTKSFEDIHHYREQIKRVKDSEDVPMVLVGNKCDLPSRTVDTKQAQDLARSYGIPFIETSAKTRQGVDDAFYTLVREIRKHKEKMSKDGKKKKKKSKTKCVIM
# TEST_SUMMARY: Protein-protein interaction inhibition between Kras and SOS1 (KrasGl2D-SOS PPI) using AlphaScreen
# Type: binding
# APPLIED_CONDITIONS: AlphaScreen; biotin-tagged human Kras loaded with GDP, His-tagged human SOS1; read-out: KRAS G12D-SOS PPI IC50
Non-standard residues stand in square brackets, D forms with d. Residues, ends and D or L forms follow the SMILES beside them. hPhe(3-Cl-4-CF3) = N[C@@H](CCc1ccc(C(F)(F)F)c(Cl)c1)C(=O)O; NMeCha = CN[C@@H](CC1CCCCC1)C(=O)O; NMeL = CN[C@@H](CC(C)C)C(=O)O; Cba = N[C@@H](CC1CCC1)C(=O)O; NMeV = CN[C@H](C(=O)O)C(C)C; d(β3hA) = C[C@@H](N)CC(=O)O; Pip = O=C(O)[C@@H]1CCCCN1; Ac5c = NC1(C(=O)O)CCCC1; Sar = CNCC(=O)O
VALUE_KIND: pIC50
When answering, recall that pIC50 equals minus log10 of the concentration in mol/L, and write that number alone.

- MOLECULE: "CC(C)C[C@H]1C(=O)N[C@@H](CC2CCC2)C(=O)N(C)CC(=O)N(C)CC(=O)N(C)[C@@H](CC2CCCCC2)C(=O)N(C)CC(=O)N[C@@H](CCc2ccc(C(F)(F)F)c(Cl)c2)C(=O)N2CCC[C@H]2C(=O)NC2(CCCC2)C(=O)N(C)[C@@H](C(C)C)C(=O)N[C@H](C)CC(=O)N1C [Compound 290] (cyclo([Ac5c][NMeV][d(β3hA)][NMeL][Cba][Sar][Sar][NMeCha][Sar][hPhe(3-Cl-4-CF3)]P))"
  pIC50: 6.80

**Q:** For the molecule CC[C@H](C)[C@@H]1NC(=O)[C@@H]2CCCCN2C(=O)C[C@@H](C)NC(=O)[C@H](CC(C)C)N(C)C(=O)C2(CCCC2)NC(=O)[C@H](CC(C)C)N(C)C(=O)[C@H](CCc2ccc(C(F)(F)F)c(Cl)c2)NC(=O)CN(C)C(=O)[C@H](CC2CCCCC2)N(C)C(=O)CN(C)C(=O)CN(C)C1=O [Compound 213] (cyclo([Ac5c][NMeL][d(β3hA)][Pip]I[Sar][Sar][NMeCha][Sar][hPhe(3-Cl-4-CF3)][NMeL])) , give its reported pIC50.
**A:** 7.32
